# Test system: M14 melanoma
# protocolDetails: NCI-60 one-dose screen, 48 h
# testParameters: 10 µM unless noted
Compounds without any hit were thinned out: in the full panel of roughly 83,000, 20% have a hit. Calls of active or inactive are those of the source. Rule for the calls: active = growth percent below 10; inactive = the rest.
Possible outcomes: Y (active), N (inactive)

* Oc1cccc(Nc2nc(-c3ccccn3)cs2)c1 | N
* Cn1c2c(cc(S(=O)(=O)c3ccccc3)c1=O)CCc1c-2cnn1-c1cccc(Cl)c1 | N
* COc1ccc(-n2ncc3c2ccc2cc(S(=O)(=O)c4ccccc4)c(=O)n(C)c23)cc1 | N
* Nc1cc2[nH]c(=O)c3ccccc3c2cc1Br | N
* COc1ccc(Cn2c(Br)c3c(c2-c2cc(OC)c(OC)c(OC)c2)CCc2sc(N)nc2-3)cc1 | N
* FC(F)(F)c1cc(CNc2ncc(Br)c(Cl)n2)cc(C(F)(F)F)c1 | N
* COc1cccc(Nc2nc(NCCO)c3ccccc3n2)c1 | N
* CCC(C)[C@H]1O[C@]2(CC[C@@H]1C)C[C@@H]1C[C@@H](C/C=C(\C)[C@@H](OC3C[C@H](OC)C(O[C@H]4C[C@H](OC)[C@@H](O)[C@H](C)O4)[C@H](C)O3)[C@@H](C)/C=C/C=C3\CO[C@@H]4[C@H](O)C(C)=C[C@@H](C(=O)O1)[C@]34O)O2 (stereo not given in full) | Y
* O=[N+]([O-])c1ccc2nc(N/N=C/c3ccc(O)cc3)sc2c1 | N
* O=C(NCc1ccco1)C1CCN(S(=O)(=O)c2ccc(Cl)cc2)CC1 | N
* Cc1ccc(-c2nnc(COc3ccc(-c4nnc(N)s4)cc3)o2)cc1 | N
* COc1cc(-c2nc(Nc3nc4ccccc4[nH]3)nc(N)c2C#N)cc(OC)c1OC | N
* Brc1ccc(SCN(CSc2ccc(Br)cc2)Cc2ccccc2)cc1 | N
* N#C/C(=C\c1ccc[nH]1)c1cc2ccccc2[nH]1 | N
* CCCCOC(=O)C1OC(Oc2ccc3c(C)cc(=O)oc3c2)[C@@H](OC(C)=O)C(OC(C)=O)C1OC(C)=O (stereo not given in full) | N
* COC(=O)c1c2c(c(C)[n+]([O-])c1C)C(=O)C=C(NCc1ccc(Cl)cc1)C2=O | Y
* O=C(CCCCCCC(=O)Nc1ccc2c(c1)/C(=C/c1ccc[nH]1)C(=O)N2)NO | Y
* Oc1ccc2ccccc2c1C1NN=C(c2ccccc2)S1 (stereo not given) | Y
* O=C1c2ccccc2-c2cn(Cc3ccccc3)c3cccc(c23)C1c1cccnc1 (stereo not given) | N
* O=C(CC(O)c1ccccc1)Nc1ccccn1 (stereo not given) | N
